Values from ChEMBL document CHEMBL1121848

Would you kindly list Reactivity for each of these compounds?
- method_description: Compound was evaluated for the reactivity in the inactivation of trypsin like enzyme
Hey, just send me the number, nothing else.

Input: Reported Reactivity, compound CC(=O)O.N=C(N)Nc1ccc(C(=O)OCC(=O)NC(Cc2ccccc2)C(N)=O)cc1 (stereo not drawn) : ____
Output: 46000

Input: Param item = "CC(=O)O.CCOC(=O)c1ccc(NC(=N)N)cc1" ; retrieve measured Reactivity.
Output: 259

Input: Given the compound "CC(=O)O.N=C(N)Nc1ccc(C(=O)OCC(=O)N[C@@H](Cc2ccccc2)C(=O)N2CCC[C@H]2C(N)=O)cc1" , what is its reported Reactivity?
Output: 32000

Input: Sample "CC(=O)O.N=C(N)Nc1ccc(C(=O)OCC(N)=O)cc1" — what was its Reactivity?
Output: 17000

Input: // Reactivity lookup, key: CC(=O)O.CC(C)C(NC(=O)COC(=O)c1ccc(NC(=N)N)cc1)C(N)=O (stereo not drawn)
Output: 11200

Input: Which measured Reactivity value corresponds to "CC(=O)O.C[C@H](NC(=O)COC(=O)c1ccc(NC(=N)N)cc1)C(=O)N[C@@H](Cc1ccccc1)C(N)=O" ?
Output: 13400

Input: Field request: Reactivity | item: "CC(=O)O.N=C(N)Nc1ccc(C(=O)OCC(=O)NCC(=O)NCC(N)=O)cc1"
Output: 10200

Input: Using the record for CC(=O)O.CC(OC(=O)c1ccc(NC(=N)N)cc1)C(=O)NC(Cc1ccccc1)C(N)=O (stereo not drawn) , report its Reactivity.
Output: 14200

----------
- method_description: Second order rate constant was determined in the inactivation of HPK
property_name: log10(k2) (log10 of the value in min⁻¹)
Recorded k2 (log10, min⁻¹)

Input: Look at this compound and give its reported log10(k2). "CC(=O)O.C[C@H](NC(=O)COC(=O)c1ccc(NC(=N)N)cc1)C(=O)N[C@@H](Cc1ccccc1)C(N)=O"
Output: -0.08

Input: Reported log10(k2), compound "CC(=O)O.N=C(N)Nc1ccc(C(=O)OCC(=O)N[C@@H](Cc2ccccc2)C(=O)N2CCC[C@H]2C(N)=O)cc1" : ____
Output: -0.08

Input: Given the compound "CC(=O)O.N=C(N)Nc1ccc(C(=O)OCC(=O)NCC(=O)NCC(N)=O)cc1" , what is its reported log10(k2)?
Output: -0.46

Input: For the compound shown here, CC(=O)O.CC(OC(=O)c1ccc(NC(=N)N)cc1)C(=O)NC(Cc1ccccc1)C(N)=O (configuration not stated) , give the reported log10(k2).
Output: -1.00

Input: Look at this compound and give its reported log10(k2). CC(=O)O.CC(C)C(NC(=O)COC(=O)c1ccc(NC(=N)N)cc1)C(N)=O (configuration not stated)
Output: -0.06

Input: Requested field: log10(k2). Item: "CC(=O)O.N=C(N)Nc1ccc(C(=O)OCC(N)=O)cc1"
Output: 0.10

Input: # input compound: CC(=O)O.N=C(N)Nc1ccc(C(=O)OCC(=O)NC(Cc2ccccc2)C(N)=O)cc1 (configuration not stated) ; wanted: its log10(k2)
Output: -0.13

----------
- Test system: Plasminogen
- method_description: Compound was evaluated for the reactivity in the inactivation of trypsin like enzyme plasmin
property_name: Reactivity
The answer should be written as a number, with no unit following it.

Input: What value of Reactivity has been recorded for this entry: CC(=O)O.CC(C)C(NC(=O)COC(=O)c1ccc(NC(=N)N)cc1)C(N)=O (centres undefined)
Output: 441

Input: Using the record for "CC(=O)O.N=C(N)Nc1ccc(C(=O)OCC(N)=O)cc1" , report its Reactivity.
Output: 644

Input: I'd like to know its Reactivity. The molecule in question is CC(=O)O.N=C(N)Nc1ccc(C(=O)OCC(=O)NC(Cc2ccccc2)C(N)=O)cc1 (centres undefined)
Output: 753

Input: Recorded Reactivity for CC(=O)O.CC(OC(=O)c1ccc(NC(=N)N)cc1)C(=O)NC(Cc1ccccc1)C(N)=O (centres undefined) , please?
Output: 743

----------
Hi there, I'd appreciate the recorded Reactivity for every entry that follows.
- measured_on: Urokinase-type plasminogen activator (Homo sapiens)
- method_description: Compound was evaluated for the reactivity in the inactivation of trypsin like Urokinase-type plasminogen activator
Lab note: write the figure by itself, no unit.

Input: Which value of Reactivity has been reported for CC(=O)O.N=C(N)Nc1ccc(C(=O)OCC(=O)NC(Cc2ccccc2)C(N)=O)cc1 (stereo not given) in the records?
Output: 21

Input: Returns the measured Reactivity for the input molecule. Input: "CC(=O)O.N=C(N)Nc1ccc(C(=O)OCC(N)=O)cc1"
Output: 300

Input: Which Reactivity value is on record for "CC(=O)O.CCOC(=O)c1ccc(NC(=N)N)cc1" ?
Output: 11

Input: # lookup: Reactivity of CC(=O)O.CC(OC(=O)c1ccc(NC(=N)N)cc1)C(=O)NC(Cc1ccccc1)C(N)=O (stereo not given)
Output: 32

Input: Could you share which Reactivity value was measured for CC(=O)O.CC(C)C(NC(=O)COC(=O)c1ccc(NC(=N)N)cc1)C(N)=O (stereo not given) ?
Output: 5

----------
- measured_on: Plasma kallikrein (Homo sapiens)
- method_description: Compound was evaluated for the reactivity in the inactivation of trypsin like enzyme Human plasma Kallikrein
property_name: Reactivity
Please state the value as a number alone, without comment.

Input: Give Plasma kallikrein (Homo sapiens) Reactivity for "CC(=O)O.C[C@H](NC(=O)COC(=O)c1ccc(NC(=N)N)cc1)C(=O)N[C@@H](Cc1ccccc1)C(N)=O"
Output: 1400

Input: Report Reactivity for "CC(=O)O.N=C(N)Nc1ccc(C(=O)OCC(=O)NCC(=O)NCC(N)=O)cc1" tested on Plasma kallikrein (Homo sapiens).
Output: 2000

Input: Test system Plasma kallikrein (Homo sapiens); read-out Reactivity; what value for "CC(=O)O.CCOC(=O)c1ccc(NC(=N)N)cc1" ?
Output: 26

Input: Please state recorded Reactivity (tested on Plasma kallikrein (Homo sapiens)) of CC(=O)O.CC(OC(=O)c1ccc(NC(=N)N)cc1)C(=O)NC(Cc1ccccc1)C(N)=O (stereo not drawn)
Output: 3000

Input: Provide value of Reactivity for this record tested with Plasma kallikrein (Homo sapiens): CC(=O)O.CC(C)C(NC(=O)COC(=O)c1ccc(NC(=N)N)cc1)C(N)=O (stereo not drawn)
Output: 2000

Input: Give Reactivity (Plasma kallikrein (Homo sapiens)) of the following molecule: "CC(=O)O.N=C(N)Nc1ccc(C(=O)OCC(N)=O)cc1"
Output: 2800

Input: Request: Reactivity, test system Plasma kallikrein (Homo sapiens), entry "CC(=O)O.N=C(N)Nc1ccc(C(=O)OCC(=O)N[C@@H](Cc2ccccc2)C(=O)N2CCC[C@H]2C(N)=O)cc1"
Output: 2600

Input: What Reactivity appears in the records for this molecule with Plasma kallikrein (Homo sapiens)? CC(=O)O.N=C(N)Nc1ccc(C(=O)OCC(=O)NC(Cc2ccccc2)C(N)=O)cc1 (stereo not drawn)
Output: 8600

----------
- method_description: Second order rate constant was determined in the inactivation of trypsin
Consider the following compounds; for each one, report its k2.
Give just the numeric value; min⁻¹ need not be written.

Input: Return reported k2; argument: "CC(=O)O.N=C(N)Nc1ccc(C(=O)OCC(=O)N[C@@H](Cc2ccccc2)C(=O)N2CCC[C@H]2C(N)=O)cc1"
Output: 1.27

Input: Endpoint output: k2 of CC(=O)O.CC(C)C(NC(=O)COC(=O)c1ccc(NC(=N)N)cc1)C(N)=O (stereo not drawn) . Value?
Output: 0.74

Input: For "CC(=O)O.CCOC(=O)c1ccc(NC(=N)N)cc1" , what is its reported k2?
Output: 1.89

Input: Form field: reported k2 of "CC(=O)O.C[C@H](NC(=O)COC(=O)c1ccc(NC(=N)N)cc1)C(=O)N[C@@H](Cc1ccccc1)C(N)=O"
Output: 0.748

Input: Which value of k2 has been reported for CC(=O)O.CC(OC(=O)c1ccc(NC(=N)N)cc1)C(=O)NC(Cc1ccccc1)C(N)=O (stereo not drawn) in the records?
Output: 3.7

Input: Which k2 reading was recorded for the compound "CC(=O)O.N=C(N)Nc1ccc(C(=O)OCC(N)=O)cc1" ?
Output: 0.523

Input: Suppose we examine the compound "CC(=O)O.N=C(N)Nc1ccc(C(=O)OCC(=O)NCC(=O)NCC(N)=O)cc1" ; what k2 value has been reported?
Output: 0.832

Input: Which value of k2 has been reported for CC(=O)O.N=C(N)Nc1ccc(C(=O)OCC(=O)NC(Cc2ccccc2)C(N)=O)cc1 (stereo not drawn) in the records?
Output: 3.24

----------
- measured_on: UniProt:P08001
- Sequence (P08001 whole entry, looked up): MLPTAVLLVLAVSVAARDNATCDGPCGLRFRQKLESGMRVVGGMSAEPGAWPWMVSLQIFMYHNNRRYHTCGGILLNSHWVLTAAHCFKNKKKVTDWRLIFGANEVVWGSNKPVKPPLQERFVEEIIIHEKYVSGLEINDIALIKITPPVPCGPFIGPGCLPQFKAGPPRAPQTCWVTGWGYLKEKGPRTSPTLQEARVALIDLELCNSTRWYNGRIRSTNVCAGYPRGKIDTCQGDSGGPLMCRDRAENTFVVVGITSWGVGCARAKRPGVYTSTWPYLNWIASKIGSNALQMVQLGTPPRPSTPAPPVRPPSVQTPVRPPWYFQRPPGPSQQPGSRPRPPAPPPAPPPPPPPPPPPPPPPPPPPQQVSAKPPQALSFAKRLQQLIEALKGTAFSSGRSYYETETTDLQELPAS
- method_description: Compound was evaluated for the reactivity in the inactivation of trypsin like boar acrosin
property_name: Reactivity
Please reply with the number alone, leaving off any unit.

Input: # get_value(readout='Reactivity', item= "CC(=O)O.CCOC(=O)c1ccc(NC(=N)N)cc1" )
Output: 200000

Input: Please report the recorded Reactivity for CC(=O)O.CC(C)C(NC(=O)COC(=O)c1ccc(NC(=N)N)cc1)C(N)=O (centres undefined) .
Output: 114000

Input: // query Reactivity value for entry CC(=O)O.N=C(N)Nc1ccc(C(=O)OCC(=O)NC(Cc2ccccc2)C(N)=O)cc1 (centres undefined)
Output: 207000

Input: Which Reactivity value belongs to "CC(=O)O.N=C(N)Nc1ccc(C(=O)OCC(N)=O)cc1" ?
Output: 117000
